- System: HCT-116 colon
- measurementProtocol: NCI tumour cell line growth inhibition, 48 h
Catalogue of TGI values
State the answer as a number, implicitly in µM.

Any idea what TGI was measured for CCOC(=O)/C=C/C(=O)[C@H](CC(C)C)NC(=O)[C@H](Cc1ccccc1)NC(=O)OCc1ccccc1 ?
9.43

And what about the molecule O=C1c2ccccc2C(=O)c2sc(Nc3ccccc3Cl)nc21 ?
22.9

And what about the molecule CC1(C)CC(=O)c2c(nc3c(ccc4ccccc43)c2-c2ccc(NC(=O)CCCCC(=O)Nc3ccc(-c4c5c(nc6c4ccc4ccccc46)CC(C)(C)CC5=O)cc3)cc2)C1 ?
74.6

And what about the molecule CCCC1(CCC)c2cc(/C=N\O)ccc2-c2ccc(-c3ccc(C(C)(C)C)cc3)cc21 ?
54.8

And what about the molecule CC[C@H](C)C1=C(O)[N@+]2([O-])Oc3ccc(-c4c(O)c(O)c(-c5ccc(O)cc5)c(OC(C)=O)c4OC(C)=O)cc3O[C@]2([C@@H](C)CC)C(=O)N1O ?
20.2

And what about the molecule Cc1ccc2oc3c(c(Br)c(Br)n3C)c(=O)c2c1 ?
33.9

* * *

Catalogue of TGI values
- Test system: SNB-75 CNS
- measurementProtocol: NCI tumour cell line growth inhibition, 48 h
State the answer as a number, implicitly in µM.

Solved cases below.
smilesRecord	targetDesc	TGI (µM)
Cc1ccc(-c2nc([P+](c3ccccc3)(c3ccccc3)c3ccccc3)c(Nc3ccccc3)o2)cc1	SNB-75 CNS	2.54
C=CCN(c1cc(OC)c2[nH]c(C(=O)OCC)c(C)c2c1[N+](=O)[O-])S(C)(=O)=O	SNB-75 CNS	60
CN(C(=O)Cc1cc(Cl)c(Cl)cc1NC(=O)CN)[C@H]1CCCC[C@@H]1N1CCCC1	SNB-75 CNS	55.9

Any idea what TGI was measured for O=C(NCCNc1nccc(-c2c(-c3cccc(O)c3)nc3sccn23)n1)c1ccccc1 ?
28.1

And what about the compound Cc1cnc(Nc2ccc(N3CCN(C)CC3)cc2)nc1Nc1ccc(Cl)c(NS(=O)(=O)C(C)(C)C)c1 ?
0.828

* * *

- System: DLD-1 colon
- measurementProtocol: NCI tumour cell line growth inhibition, 48 h
endpointName: TGI (µM)
State the answer as a number, implicitly in µM.

molecule	experimentalValue
C[C@]12CCNC(=O)C=C1CC[C@@H]1C2CC[C@@]2(C)C1CC[C@@H]2OC(=O)COc1ccc(N(CCCl)CCCl)cc1 (stereo not given in full)	17.8
CC(CN(C)C)C(=O)c1ccccc1 (stereo not given)	32.6
CN(C)CCNC(=O)c1cccc2ccc(-c3ccc(-c4ccccc4)cc3)nc12	8.64

Give TGI (DLD-1 colon) of the following molecule: CC(=O)OC1CC[C@@]2(C)C(CC[C@]3(C)C2CC=C2[C@@H]4C(C)[C@H](C)CCC4(C)CCC23C)[C@@]1(C)C(=O)O (stereo not given in full)
46.4

* * *

- System: A498 renal
- measurementProtocol: NCI tumour cell line growth inhibition, 48 h
endpointName: TGI (µM)
State the answer as a number, implicitly in µM.

smilesRecord	TGI / µM
N#Cc1c(-c2ccc(Cl)cc2)c2c(N=Nc3c(O)ccc4ccccc34)[nH]nc2[nH]c1=O	0.468
C[C@@H]1COCCN1c1cc(C2([S@@](C)(=N)=O)CC2)nc(-c2ccnc3[nH]ccc23)n1	4.2
CN1CCN(Cc2ccc3c(NNC(=O)c4ccccc4)nc4cc(F)ccc4n23)CC1	8.81

Now consider the entry below.
Any idea what TGI was measured for C=C1C(=O)O[C@H]2[C@H]1CC/C(COC(=O)NCCc1c[nH]c3ccc(Cl)cc13)=C\CC[C@@]1(C)O[C@@H]21 ?
14.7

The values you see were collected from PubChem BioAssay (NCI).
